- System: SW1353
- procedureDetails: relative viability vs DMSO control (72 h) (fraction); higher = more viable cells
- conditionLabel: 0.3704 µM
Decision: relative viability beneath 0.8 gives Fulfilled; relative viability meeting or exceeding 0.8 gives Not fulfilled.

>>> discretelabel("C#Cc1cccc(Nc2ncnc3cc4c(cc23)OCCOCCOCCO4)c1")
"Not fulfilled"
>>> discretelabel("CS(=O)(=O)CCNCc1ccc(-c2ccc3ncnc(Nc4ccc(OCc5cccc(F)c5)c(Cl)c4)c3c2)o1")
"Not fulfilled"
>>> discretelabel("COc1cc(N2CCC(N3CCN(C)CC3)CC2)ccc1Nc1ncc(Cl)c(Nc2ccccc2P(C)(C)=O)n1")
"Fulfilled"
>>> discretelabel("Cc1[nH]c(/C=C2\\C(=O)Nc3ccccc32)c(C)c1CCC(=O)O [Orantinib]")
"Not fulfilled"
>>> discretelabel("CN(C)C/C=C/C(=O)Nc1cc2c(Nc3ccc(F)c(Cl)c3)ncnc2cc1O[C@H]1CCOC1")
"Fulfilled"
>>> discretelabel("Cc1cc(F)c(C(=O)Nc2cccc(-c3nncn3C(C)C)n2)cc1-n1cnc(C2CC2)c1")
"Not fulfilled"
>>> discretelabel("CNC(=O)c1c(C)oc2cc(Oc3ncnc4cc(OC)c(OC)cc34)ccc12")
"Not fulfilled"

---

- Tested on: SW982
- procedureDetails: relative viability vs DMSO control (72 h) (fraction); higher = more viable cells
- conditionLabel: 3.333 µM
observedProperty: relative viability

>>> measurement("CCOc1cc2ncc(C#N)c(Nc3ccc(OCc4ccccn4)c(Cl)c3)c2cc1NC(=O)/C=C/CN(C)C")
0.215
>>> measurement("COc1cc(N2CCC(N3CCN(C)CC3)CC2)ccc1Nc1ncc(Cl)c(Nc2ccccc2P(C)(C)=O)n1")
0.00817
>>> measurement("CO[C@H]1C[C@@H]2CC[C@@H](C)[C@@](O)(O2)C(=O)C(=O)N2CCCC[C@H]2C(=O)O[C@H]([C@H](C)C[C@@H]2CC[C@@H](OC(=O)C(C)(CO)CO)[C@H](OC)C2)CC(=O)[C@H](C)/C=C(\\C)[C@@H](O)[C@@H](OC)C(=O)[C@H](C)C[C@H](C)/C=C/C=C/C=C/1C")
0.473
>>> measurement("CN(C)C(=O)c1cc2cnc(Nc3ccc(N4CCNCC4)cn3)nc2n1C1CCCC1")
0.788
>>> measurement("O=S(=O)(c1cccc2c(O)nccc12)N1CCCNCC1 [Hydroxyfasudil]")
1.04

---

- Tested on: HT1080
- procedureDetails: standardised AUC of viability dose-response curve (72 h) (fraction (0-1)); higher = less growth inhibition (more resistant)
# key: entry, value: standardised AUC
observedProperty: standardised AUC

>>> measurement("C[C@@H]1CN(C(=O)c2ccc(NC(=O)c3cc(O[C@H](C)c4c(Cl)ccc(F)c4Cl)c(N)nn3)cc2)C[C@H](C)N1")
0.929
>>> measurement("Cc1cc(F)c(C(=O)Nc2cccc(-c3nncn3C(C)C)n2)cc1-n1cnc(C2CC2)c1")
1
>>> measurement("O=C(/C=C\\n1cnc(-c2cc(C(F)(F)F)cc(C(F)(F)F)c2)n1)NNc1cnccn1 [SELINEXOR]")
0.714
>>> measurement("O=S(=O)(c1cccc2c(O)nccc12)N1CCCNCC1 [HYDROXYFASUDIL]")
0.999

---

- System: VA-ES-BJ
- procedureDetails: relative viability vs DMSO control (72 h) (fraction); higher = more viable cells
- conditionLabel: 1.111 µM
observedProperty: relative viability

>>> measurement("COc1cc(N2CCC(N3CCN(C)CC3)CC2)ccc1Nc1ncc(Cl)c(Nc2ccccc2P(C)(C)=O)n1 [Brigatinib]")
0.272
>>> measurement("Cc1cc(F)c(C(=O)Nc2cccc(-c3nncn3C(C)C)n2)cc1-n1cnc(C2CC2)c1 [Selonsertib]")
0.938
>>> measurement("COc1cc2ncnc(Nc3ccc(F)c(Cl)c3)c2cc1OCCCN1CCOCC1 [Gefitinib]")
1.06
>>> measurement("CO[C@H]1C[C@@H]2CC[C@@H](C)[C@@](O)(O2)C(=O)C(=O)N2CCCC[C@H]2C(=O)O[C@H]([C@H](C)C[C@@H]2CC[C@@H](OC(=O)C(C)(CO)CO)[C@H](OC)C2)CC(=O)[C@H](C)/C=C(\\C)[C@@H](O)[C@@H](OC)C(=O)[C@H](C)C[C@H](C)/C=C/C=C/C=C/1C [Temsirolimus]")
0.419
>>> measurement("COc1cc(Nc2ncc3c(n2)-c2ccc(Cl)cc2C(c2c(F)cccc2OC)=NC3)ccc1C(=O)O [Alisertib]")
0.571
>>> measurement("C=CC(=O)N1CCC(CNc2ncnc(N)c2-c2ccc(Oc3ccccc3)cc2)CC1 [Evobrutinib]")
1.06
>>> measurement("O=C(/C=C\\n1cnc(-c2cc(C(F)(F)F)cc(C(F)(F)F)c2)n1)NNc1cnccn1 [Selinexor]")
0.198
>>> measurement("CCS(=O)(=O)N1CC(CC#N)(n2cc(-c3ncnc4[nH]ccc34)cn2)C1 [Baricitinib]")
1.04
>>> measurement("O=C1CCc2c(Oc3ccc4c(c3)[C@@H]3[C@H](O4)[C@H]3c3nc4cc(C(F)(F)F)ccc4[nH]3)ccnc2N1 [Lifirafenib]")
1.11

---

- Tested on: SYO-1
- procedureDetails: relative viability vs DMSO control (72 h) (fraction); higher = more viable cells
- conditionLabel: 1.111 µM
Reported values of relative viability for individual entries
observedProperty: relative viability

>>> measurement("CN(C)C/C=C/C(=O)Nc1cc2c(Nc3ccc(F)c(Cl)c3)ncnc2cc1O[C@H]1CCOC1 [Afatinib]")
0.528
>>> measurement("Cn1cnc2c(F)c(Nc3ccc(Br)cc3Cl)c(C(=O)NOCCO)cc21 [Selumetinib]")
0.778
>>> measurement("CNC(=O)c1cccc2cc(Oc3ccnc4cc(OCC5(N)CC5)c(OC)cc34)ccc12 [Lucitanib]")
0.504
>>> measurement("COc1cc2ncnc(Nc3ccc(F)c(Cl)c3)c2cc1OCCCN1CCOCC1 [Gefitinib]")
0.955
>>> measurement("CNC(=O)c1c(C)oc2cc(Oc3ncnc4cc(OC)c(OC)cc34)ccc12 [Fruquintinib]")
0.498
>>> measurement("CCS(=O)(=O)N1CC(CC#N)(n2cc(-c3ncnc4[nH]ccc34)cn2)C1 [Baricitinib]")
0.988
>>> measurement("CN(C)C(=O)c1cc2cnc(Nc3ccc(N4CCNCC4)cn3)nc2n1C1CCCC1 [Ribociclib]")
0.705
>>> measurement("O=S(=O)(c1cccc2c(O)nccc12)N1CCCNCC1 [Hydroxyfasudil]")
0.919
>>> measurement("O=C(/C=C\\n1cnc(-c2cc(C(F)(F)F)cc(C(F)(F)F)c2)n1)NNc1cnccn1 [Selinexor]")
0.25

---

- Tested on: VA-ES-BJ
- procedureDetails: relative viability vs DMSO control (72 h) (fraction); higher = more viable cells
- conditionLabel: 0.04115 µM
Each item that follows carries a reported relative viability.
observedProperty: relative viability

>>> measurement("Cn1cnc2c(F)c(Nc3ccc(Br)cc3Cl)c(C(=O)NOCCO)cc21 [Selumetinib]")
0.877
>>> measurement("CN(C)C(=O)c1cc2cnc(Nc3ccc(N4CCNCC4)cn3)nc2n1C1CCCC1 [Ribociclib]")
0.985
>>> measurement("O=C(/C=C\\n1cnc(-c2cc(C(F)(F)F)cc(C(F)(F)F)c2)n1)NNc1cnccn1 [Selinexor]")
0.78
>>> measurement("COc1cc2ncnc(Nc3ccc(F)c(Cl)c3)c2cc1OCCCN1CCOCC1 [Gefitinib]")
1.05
>>> measurement("COc1cc(N2CCC(N3CCN(C)CC3)CC2)ccc1Nc1ncc(Cl)c(Nc2ccccc2P(C)(C)=O)n1 [Brigatinib]")
0.91
>>> measurement("CCOc1cc2ncc(C#N)c(Nc3ccc(OCc4ccccn4)c(Cl)c3)c2cc1NC(=O)/C=C/CN(C)C [Neratinib]")
0.92
>>> measurement("CO[C@H]1C[C@@H]2CC[C@@H](C)[C@@](O)(O2)C(=O)C(=O)N2CCCC[C@H]2C(=O)O[C@H]([C@H](C)C[C@@H]2CC[C@@H](OC(=O)C(C)(CO)CO)[C@H](OC)C2)CC(=O)[C@H](C)/C=C(\\C)[C@@H](O)[C@@H](OC)C(=O)[C@H](C)C[C@H](C)/C=C/C=C/C=C/1C [Temsirolimus]")
0.448
>>> measurement("COc1cc(Nc2ncc3c(n2)-c2ccc(Cl)cc2C(c2c(F)cccc2OC)=NC3)ccc1C(=O)O [Alisertib]")
0.919
>>> measurement("Cc1cc2c(F)c(Oc3ncnn4cc(OC[C@@H](C)OC(=O)[C@H](C)N)c(C)c34)ccc2[nH]1 [Brivanib_alaninate]")
0.984

---

- Tested on: HS729
- procedureDetails: relative viability vs DMSO control (72 h) (fraction); higher = more viable cells
- conditionLabel: 0.04115 µM
# note: boundary value 0.9 maps to rule not met; relative viability below it maps to rule met

>>> discretelabel("CCS(=O)(=O)N1CC(CC#N)(n2cc(-c3ncnc4[nH]ccc34)cn2)C1")
"rule not met"
>>> discretelabel("O=C(/C=C\\n1cnc(-c2cc(C(F)(F)F)cc(C(F)(F)F)c2)n1)NNc1cnccn1 [Selinexor]")
"rule met"
>>> discretelabel("CN(C)C/C=C/C(=O)Nc1cc2c(Nc3ccc(F)c(Cl)c3)ncnc2cc1O[C@H]1CCOC1")
"rule not met"
>>> discretelabel("CNC(=O)c1c(C)oc2cc(Oc3ncnc4cc(OC)c(OC)cc34)ccc12")
"rule not met"
>>> discretelabel("CO[C@H]1C[C@@H]2CC[C@@H](C)[C@@](O)(O2)C(=O)C(=O)N2CCCC[C@H]2C(=O)O[C@H]([C@H](C)C[C@@H]2CC[C@@H](OC(=O)C(C)(CO)CO)[C@H](OC)C2)CC(=O)[C@H](C)/C=C(\\C)[C@@H](O)[C@@H](OC)C(=O)[C@H](C)C[C@H](C)/C=C/C=C/C=C/1C")
"rule met"
>>> discretelabel("COc1cc2ncnc(Nc3ccc(F)c(Cl)c3)c2cc1OCCCN1CCOCC1")
"rule not met"
>>> discretelabel("C=CC(=O)N1CCC(CNc2ncnc(N)c2-c2ccc(Oc3ccccc3)cc2)CC1")
"rule not met"

All values here come from the supplement of paper PMC10883282.
